# assay.target: Bac-F (UniProt P03420 26-524)
# Sequence (P03420 26-524): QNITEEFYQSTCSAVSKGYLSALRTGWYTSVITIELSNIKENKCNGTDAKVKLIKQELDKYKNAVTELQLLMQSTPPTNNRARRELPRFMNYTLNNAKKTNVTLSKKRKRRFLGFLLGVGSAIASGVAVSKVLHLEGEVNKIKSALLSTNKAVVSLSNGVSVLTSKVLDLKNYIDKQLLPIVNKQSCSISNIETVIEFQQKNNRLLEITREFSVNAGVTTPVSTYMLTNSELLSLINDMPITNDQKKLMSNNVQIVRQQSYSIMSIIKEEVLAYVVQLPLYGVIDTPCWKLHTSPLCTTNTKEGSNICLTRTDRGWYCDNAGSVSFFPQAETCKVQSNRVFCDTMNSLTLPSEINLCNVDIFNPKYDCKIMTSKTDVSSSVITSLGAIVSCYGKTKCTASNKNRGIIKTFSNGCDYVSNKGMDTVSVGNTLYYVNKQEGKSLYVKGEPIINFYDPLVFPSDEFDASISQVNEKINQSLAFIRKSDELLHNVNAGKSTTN
# assay.text: BIAcore, Mab vs Bac-F, 1:1
property: kon (M⁻¹ s⁻¹)
Quick reminder: number only, in M⁻¹ s⁻¹, skip the unit.

Q) # input binder: SYNAGIS® (antibody, V domains shown, also called SYNAGIS ®/SYNAGIS ® (HC/LC)) VH: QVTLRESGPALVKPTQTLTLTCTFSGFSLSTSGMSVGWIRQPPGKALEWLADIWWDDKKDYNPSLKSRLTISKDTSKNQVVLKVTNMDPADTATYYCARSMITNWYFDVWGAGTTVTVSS VL: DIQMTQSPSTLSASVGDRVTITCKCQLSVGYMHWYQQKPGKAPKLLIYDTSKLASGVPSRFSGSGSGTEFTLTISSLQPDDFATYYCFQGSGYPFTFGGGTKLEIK ; wanted: its kon
A) 132000

Source: patent US20020177126A1
